Data provenance is paper PMC9090415.

target: UniProtKB Q8ILY1; experiment: Fluorescence-based high-throughput DNA polymerase assay (molecular beacon), primary screen and dose-response; type: biochemical; details: DRC-2, 5', concentration 40
Each entry below lists one item and its recorded % inhibition Apo pol 5' value.
Provide only the numeric value, understood in %.

// worked examples, % inhibition Apo pol 5' included
[
  {
    "compound": "O=C(O)C(=O)Nc1nc(-c2ccc3c(c2)OCCO3)cs1",
    "% inhibition Apo pol 5' [%]": 34
  },
  {
    "compound": "CCOC(=O)C(NCc1ccco1)(NC(=O)c1ccco1)C(F)(F)F (stereo not drawn)",
    "% inhibition Apo pol 5' [%]": 44
  },
  {
    "compound": "CSCCC(C)(O)CNC(=O)C1CC1 (stereo not drawn)",
    "% inhibition Apo pol 5' [%]": 29
  },
  {
    "compound": "CC1=NNC(=O)C1Oc1ccc(Cl)cc1Cl (stereo not drawn)",
    "% inhibition Apo pol 5' [%]": 45
  }
]

-- ask Give the measured % inhibition Apo pol 5' of `O=[N+]([O-])c1cc2c(cc1CN1CCCCCC1)OCO2` .
-- reply 46

-- ask Also `O=[N+]([O-])c1cc2c(cc1CN1CCN(c3cccc(Cl)c3)CC1)OCO2` , if possible.
-- reply 45

-- ask Also `CN(C)C=C1SCc2ccccc2C1=O` , if possible.
-- reply 41

-- ask Also CO/N=C(\C(=O)N[C@@H]1C(=O)N2C(C(=O)[O-])=C(CSc3nc(=O)c([O-])nn3C)CSC12)c1csc(N)n1.[Na+].[Na+] (stereo partly drawn) , if possible.
-- reply 42

-- ask Also `Cn1nc(C(=O)N2CCc3c(nc4cc(-c5ccccc5)[nH]n4c3=O)C2)c2ccccc21` , if possible.
-- reply 43

---

biological target: bacteriophage T4 DNA polymerase (Enterobacteria phage T4, UniProt P04415); construct: made in house; experiment: Counter-screen against bacteriophage T4 DNA polymerase; format: biochemical; conditions: DRC-2; 180'; concentration 5
Sequence (P04415 whole entry): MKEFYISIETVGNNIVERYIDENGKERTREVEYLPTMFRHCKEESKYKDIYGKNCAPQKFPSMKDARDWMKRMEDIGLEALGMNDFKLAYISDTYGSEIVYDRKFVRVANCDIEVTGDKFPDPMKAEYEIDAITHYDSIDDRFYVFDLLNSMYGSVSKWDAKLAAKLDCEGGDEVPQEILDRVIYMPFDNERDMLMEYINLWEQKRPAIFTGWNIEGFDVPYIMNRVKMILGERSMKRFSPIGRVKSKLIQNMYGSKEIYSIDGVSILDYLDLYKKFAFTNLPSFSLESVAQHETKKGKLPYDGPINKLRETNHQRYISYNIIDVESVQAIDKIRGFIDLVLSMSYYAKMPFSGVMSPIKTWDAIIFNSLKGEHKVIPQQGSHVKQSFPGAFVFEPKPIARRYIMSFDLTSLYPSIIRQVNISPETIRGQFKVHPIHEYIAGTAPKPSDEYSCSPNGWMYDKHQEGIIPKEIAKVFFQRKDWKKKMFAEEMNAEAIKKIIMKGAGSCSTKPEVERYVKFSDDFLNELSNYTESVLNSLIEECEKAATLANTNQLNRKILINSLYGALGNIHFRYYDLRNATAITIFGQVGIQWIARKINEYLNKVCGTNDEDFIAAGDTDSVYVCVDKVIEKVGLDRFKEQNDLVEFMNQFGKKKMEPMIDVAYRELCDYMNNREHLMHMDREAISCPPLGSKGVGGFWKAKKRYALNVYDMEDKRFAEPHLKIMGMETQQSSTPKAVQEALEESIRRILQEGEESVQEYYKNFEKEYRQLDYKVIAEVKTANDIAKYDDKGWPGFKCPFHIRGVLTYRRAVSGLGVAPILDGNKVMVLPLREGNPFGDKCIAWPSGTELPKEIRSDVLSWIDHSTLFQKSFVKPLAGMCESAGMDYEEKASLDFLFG
Each entry below lists one item and its recorded % inhibition T4 180' value.
Provide only the numeric value, understood in %.

[
  {
    "molecule": "Cl.NC(CO)C(=O)NNCc1ccc(O)c(O)c1O (centres unmarked)",
    "recorded_metric": "% inhibition T4 180'",
    "recorded_value": -17
  },
  {
    "molecule": "Cc1ccc(NC(=O)Cn2ccc3c(=O)[nH]ccc32)cc1F [Molecule 48, O=C(Cn1ccc2c1cc[nH]c2=O)Nc1ccc(c(c1)F)C]",
    "recorded_metric": "% inhibition T4 180'",
    "recorded_value": -12
  },
  {
    "molecule": "O=C(NNC(=O)c1ccc(Cl)cc1)C(=O)NNC(=O)c1ccc(Cl)cc1",
    "recorded_metric": "% inhibition T4 180'",
    "recorded_value": -17
  },
  {
    "molecule": "CC1(C)CC(=O)C2=C(C1)OC1=C(C(=O)CC(C)(C)C1)C2c1ccc(O)cc1",
    "recorded_metric": "% inhibition T4 180'",
    "recorded_value": 12
  }
]

-- ask Give the measured % inhibition T4 180' of `CC(=O)c1cc2c(N)c(/C(N)=N/C#N)sc2nc1C` .
-- reply -23

---

biological target: P. falciparum apicoplast DNA polymerase (Pf-apPOL) (Plasmodium falciparum, UniProt Q8ILY1); experiment: Fluorescence-based high-throughput DNA polymerase assay (molecular beacon), primary screen and dose-response; type: biochemical; conditions: DRC-2, 180', concentration 20;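 as to % inhibition apPOL 180': test concentration in µM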
Sequence (Q8ILY1 entry or part of it): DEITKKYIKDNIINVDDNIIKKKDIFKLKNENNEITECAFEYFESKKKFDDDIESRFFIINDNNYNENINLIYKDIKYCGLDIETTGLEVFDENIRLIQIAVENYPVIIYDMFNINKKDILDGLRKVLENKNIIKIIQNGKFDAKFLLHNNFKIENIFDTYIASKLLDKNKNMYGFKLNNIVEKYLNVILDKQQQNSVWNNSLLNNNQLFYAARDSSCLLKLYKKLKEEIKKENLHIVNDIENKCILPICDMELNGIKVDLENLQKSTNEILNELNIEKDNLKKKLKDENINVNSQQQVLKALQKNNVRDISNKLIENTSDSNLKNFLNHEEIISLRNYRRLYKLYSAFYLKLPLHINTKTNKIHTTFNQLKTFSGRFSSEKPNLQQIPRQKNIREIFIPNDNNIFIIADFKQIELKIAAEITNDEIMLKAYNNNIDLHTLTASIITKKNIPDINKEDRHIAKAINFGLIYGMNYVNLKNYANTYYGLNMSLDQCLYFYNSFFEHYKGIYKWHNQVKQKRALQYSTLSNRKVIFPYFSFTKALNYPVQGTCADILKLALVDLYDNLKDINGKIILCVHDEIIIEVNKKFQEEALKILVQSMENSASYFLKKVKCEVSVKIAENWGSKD
Each entry below lists one item and its recorded % inhibition apPOL 180' value.
Provide only the numeric value, understood in %.

// worked examples, % inhibition apPOL 180' included
[
  {
    "compound": "O=C(Nc1nnc(-c2cccs2)o1)c1ccc([N+](=O)[O-])o1",
    "recorded_metric": "% inhibition apPOL 180'",
    "recorded_value": 20
  },
  {
    "compound": "COc1ccccc1CCC(=O)N1CCc2c(nc3cc(-c4ccccc4)[nH]n3c2=O)C1",
    "recorded_metric": "% inhibition apPOL 180'",
    "recorded_value": 59
  }
]

-- ask Give the measured % inhibition apPOL 180' of CCOc1ccccc1-c1nc(-c2ccc(=O)[nH]c2)no1 [Molecule 76, CCOc1ccccc1c1onc(n1)c1ccc(=O)[nH]c1] .
-- reply 16

-- ask Also `Oc1ccc(N=Nc2ccccc2)c(O)c1` , if possible.
-- reply 15

-- ask Also O=C(c1c[nH]c2ncccc12)N1CCCCCC1 [Molecule 51, O=C(c1c[nH]c2c1cccn2)N1CCCCCC1] , if possible.
-- reply 37

-- ask Also CO/N=C(\C(=O)N[C@@H]1C(=O)N2C(C(=O)[O-])=C(CSc3nc(=O)c([O-])nn3C)CSC12)c1csc(N)n1.[Na+].[Na+] (some centres unmarked) , if possible.
-- reply 5

-- ask Also `O=c1cc(-c2ccccc2)oc2c(O)c(O)ccc12` , if possible.
-- reply 6

-- ask Also `COc1ccc(C(=O)Nc2cccc(-c3nc4ncccc4o3)c2)cc1[N+](=O)[O-]` , if possible.
-- reply -8

-- ask Also `CN(C)C=C1SCc2ccccc2C1=O` , if possible.
-- reply 7.49

-- ask Also CC1=NNC(=O)C1Oc1ccc(Cl)cc1Cl (centres unmarked) , if possible.
-- reply 9

-- ask Also `Cn1nc(C(=O)N2CCc3c(nc4cc(-c5ccccc5)[nH]n4c3=O)C2)c2ccccc21` , if possible.
-- reply 45

-- ask Also `CCSc1nnc(NC(=O)Cc2csc(NC(=O)c3cnccn3)n2)s1` , if possible.
-- reply 26

-- ask Also CCOC(=O)C(NCc1ccco1)(NC(=O)c1ccco1)C(F)(F)F (centres unmarked) , if possible.
-- reply 2.7

-- ask Also O=C(O)CC1SC(c2ccc3c(c2)OCO3)=NC1=O (centres unmarked) , if possible.
-- reply 7

-- ask Also `Cc1nn(CC(=O)NCCSCc2ccco2)c(C)c1Br` , if possible.
-- reply 7.41

-- ask Also `O=C(Nc1nnc(-c2ccno2)o1)c1ccc2ncsc2c1` , if possible.
-- reply 21

---

biological target: P. falciparum apicoplast DNA polymerase (Pf-apPOL) (Plasmodium falciparum, UniProt Q8ILY1); assay: Fluorescence-based high-throughput DNA polymerase assay (molecular beacon), primary screen and dose-response; type: biochemical; details: DRC-2; 40'; concentration 10;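 as to % inhibition Apol 40': compound concentration given in µM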
recorded_metric: % inhibition Apol 40' (%)
Provide only the numeric value, understood in %.

// worked examples, % inhibition Apol 40' included
[
  {
    "molecule": "Cc1cccc(-c2noc(C(=O)NNC(=O)C(Cl)(Cl)Cl)n2)c1 [KU0266208]",
    "u": "%",
    "recorded_value": 11
  },
  {
    "molecule": "O=c1cc(-c2ccccc2Cl)oc2c(NS(=O)(=O)c3cc(Cl)cc(Cl)c3O)ccc(O)c12 [KU0104277]",
    "u": "%",
    "recorded_value": 42
  },
  {
    "molecule": "Cc1cc(C)c(O)c(/N=C/c2cc([N+](=O)[O-])cc(Br)c2O)c1 [KU0046272]",
    "u": "%",
    "recorded_value": 4
  },
  {
    "molecule": "O=C(CSc1nc2ccccc2s1)Nc1ncc([N+](=O)[O-])s1 [KU0019667]",
    "u": "%",
    "recorded_value": -13
  },
  {
    "molecule": "CCCCCc1c2c(cc(O)c1C(=O)O)OC(=O)c1c(cc(OC)cc1C(=O)CCCC)O2 [Molecule 24]",
    "u": "%",
    "recorded_value": 51
  },
  {
    "molecule": "CCCCC(=O)N1CCc2c(nc3cc(-c4ccccc4Cl)[nH]n3c2=O)C1 [Molecule 37]",
    "u": "%",
    "recorded_value": 33
  },
  {
    "molecule": "Cc1ccc(NC(=O)Cn2ccc3c(=O)[nH]ccc32)cc1F [Molecule 48, O=C(Cn1ccc2c1cc[nH]c2=O)Nc1ccc(c(c1)F)C]",
    "u": "%",
    "recorded_value": 23
  },
  {
    "molecule": "COc1ccc(S(=O)(=O)/N=C2\\NC(=O)/C(=C3\\C(=O)Nc4ccc([N+](=O)[O-])cc43)S2)cc1 [KU0054985]",
    "u": "%",
    "recorded_value": 20
  },
  {
    "molecule": "CCCCCCCCCCCC1SCC(C(=O)O)N1C(C)=O (stereo not shown) [Molecule 72]",
    "u": "%",
    "recorded_value": 29
  },
  {
    "molecule": "O=[N+]([O-])c1ccc(/C=C/c2ccc3ccccc3n2)o1 [Molecule 21, O=N(=O)c1ccc(o1)/C=C/c1ccc2c(n1)cccc2]",
    "u": "%",
    "recorded_value": 63
  }
]

-- ask Give the measured % inhibition Apol 40' of O=C(O)c1nc(-c2ccccc2)nc2c1OCO2 [Molecule 45, OC(=O)c1nc(nc2c1OCO2)c1ccccc1] .
-- reply 34

-- ask Also NS(=O)(=O)c1ccc(NC(=O)c2ccc(N3C(=O)CCC3=O)cc2)cc1 [KU0025331] , if possible.
-- reply 21

-- ask Also Cc1cccc(-c2nnc3ccc(NS(=O)(=O)c4ccc(C)c(C)c4)nn23)c1 [Molecule 40] , if possible.
-- reply 30

-- ask Also CSC1=C(C#N)C(=C(C#N)C#N)NC(c2ccccc2)=N1 [Molecule 2, CSc1nc([nH]c(=C(C#N)C#N)c1C#N)c1ccccc1] , if possible.
-- reply 47

-- ask Also COc1ccc(CNC(=O)Cn2nc3c(c2NC(=O)Cc2cccs2)CSC3)cc1 [Molecule 55] , if possible.
-- reply 17

-- ask Also COc1ccccc1CC(=O)N1CCc2c(nc3cc(-c4ccccc4Cl)[nH]n3c2=O)C1 [Molecule 49] , if possible.
-- reply 44
